System: Rattus norvegicus
experimental details: In vivo antagonism of histamine-induced ACTH release in the rat at 10 mg/kg (ip).
Assay type: functional
Would you kindly list Decrease for each of these compounds?

> print(dat)
                                   compound  assay.result
1  COc1cccc(C(CN(C)C)C2(O)CCCCC2)c1 (stereo unspecified)           52%
2  COc1ccc(C(CN(C)C)C2(O)CCCCC2)cc1 (stereo in doubt; 4) [VENLAFAXINE]           26%
3  CN(C)CC(c1ccc(Cl)c(Cl)c1)C1(O)CCCCC1 (stereo unspecified)           55%
4  COc1ccc(C(CN(C)C)C2(O)CCCCC2)cc1Br (stereo unspecified)           34%
5  CN(C)CC(c1ccc(Br)cc1)C1(O)CCCCC1 (stereo unspecified)           43%

# ---- query compound ----
Lookup result for CNCCCN1c2ccccc2CCc2ccccc21 [DESIPRAMINE] ; measured Decrease: 52%
